method_description: GA glucuronidation kinetics in rat liver microsomes
Assay type: in vitro ADME, Sprague-Dawley rats
assay_conditions: male, Sprague-Dawley, rat, rat liver microsomes, pH 7.4, Clint, RLM, M2 formation
quantity: microsomal CLint (µL/min/mg)
// note: answer is a bare numeric in µL/min/mg

Requested field: microsomal CLint. Item: CC1(C)C=Cc2c(ccc3c2OC[C@@H](c2ccc(O)cc2O)C3)O1 [GA, glabridin]
4100

* * *

target_of_assay: UGT1A10 (Homo sapiens)
Sequence (Q9HAW8 26-530): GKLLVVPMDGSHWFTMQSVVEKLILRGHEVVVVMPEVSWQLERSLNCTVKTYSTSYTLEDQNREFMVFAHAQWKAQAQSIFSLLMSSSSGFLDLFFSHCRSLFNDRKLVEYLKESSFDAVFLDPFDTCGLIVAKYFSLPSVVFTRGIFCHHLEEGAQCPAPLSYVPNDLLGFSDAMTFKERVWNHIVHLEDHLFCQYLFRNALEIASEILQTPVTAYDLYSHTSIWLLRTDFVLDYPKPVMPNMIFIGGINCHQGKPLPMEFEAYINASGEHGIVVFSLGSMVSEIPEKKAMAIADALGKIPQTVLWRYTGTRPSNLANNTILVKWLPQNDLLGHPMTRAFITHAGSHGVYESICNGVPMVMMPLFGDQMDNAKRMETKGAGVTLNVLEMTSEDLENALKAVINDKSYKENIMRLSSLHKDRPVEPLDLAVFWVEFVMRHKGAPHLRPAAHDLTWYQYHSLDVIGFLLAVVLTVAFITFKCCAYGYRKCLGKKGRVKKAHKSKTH
method_description: GA glucuronidation kinetics by recombinant UGT1A10
Type: in vitro ADME
assay_conditions: human, recombinant UGT1A10, pH 7.4
quantity: microsomal CLint (µL/min/mg)
// note: answer is a bare numeric in µL/min/mg

Requested field: microsomal CLint. Item: CC1(C)C=Cc2c(ccc3c2OC[C@@H](c2ccc(O)cc2O)C3)O1 [GA, glabridin]
18

* * *

target_of_assay: UGT1A3 (Homo sapiens)
Sequence (P35503 29-534): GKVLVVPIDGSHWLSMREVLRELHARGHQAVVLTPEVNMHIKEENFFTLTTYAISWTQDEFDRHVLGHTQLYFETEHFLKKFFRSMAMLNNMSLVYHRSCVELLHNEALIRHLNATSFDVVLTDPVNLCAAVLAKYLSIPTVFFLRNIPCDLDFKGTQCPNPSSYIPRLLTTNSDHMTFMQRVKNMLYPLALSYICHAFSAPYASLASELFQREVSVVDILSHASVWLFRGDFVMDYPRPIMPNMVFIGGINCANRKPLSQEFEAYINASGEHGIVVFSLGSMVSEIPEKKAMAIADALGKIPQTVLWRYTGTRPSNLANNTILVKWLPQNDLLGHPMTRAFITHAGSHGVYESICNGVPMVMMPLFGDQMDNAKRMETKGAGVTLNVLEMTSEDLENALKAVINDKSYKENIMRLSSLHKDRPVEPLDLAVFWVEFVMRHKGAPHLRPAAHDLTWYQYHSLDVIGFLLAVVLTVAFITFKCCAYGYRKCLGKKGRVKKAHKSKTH
method_description: GA glucuronidation kinetics by recombinant UGT1A3
Type: in vitro ADME
assay_conditions: recombinant human UGT1A3, pH 7.4
quantity: microsomal CLint (µL/min/mg)
// note: answer is a bare numeric in µL/min/mg

Requested field: microsomal CLint. Item: `CC1(C)C=Cc2c(ccc3c2OC[C@@H](c2ccc(O)cc2O)C3)O1`
29

* * *

method_description: GA glucuronidation kinetics in beagle dog liver microsomes
Format: in vitro ADME, beagle dogs
assay_conditions: beagle, dog, dog liver microsomes, pH 7.4, Clint, DLM, M2 formation
quantity: microsomal CLint (µL/min/mg)
// note: answer is a bare numeric in µL/min/mg

Requested field: microsomal CLint. Item: `CC1(C)C=Cc2c(ccc3c2OC[C@@H](c2ccc(O)cc2O)C3)O1`
214

* * *

method_description: GA glucuronidation kinetics in human liver microsomes
Assay type: in vitro ADME
assay_conditions: both, human, liver microsomes, pH 7.4, Km (KS), HLM, M2 formation, Michaelis–Menten
quantity: Km at 60 min
Output should be the measured figure followed by the unit it is expressed in.

Requested field: Km at 60 min. Item: `CC1(C)C=Cc2c(ccc3c2OC[C@@H](c2ccc(O)cc2O)C3)O1`
24.2 µM

* * *

method_description: GA glucuronidation kinetics in rat liver microsomes
Assay type: in vitro ADME, Sprague-Dawley rats
assay_conditions: male, Sprague-Dawley, rat, rat liver microsomes, pH 7.4, Cltotal, RLM
quantity: microsomal CLint (µL/min/mg)
// note: answer is a bare numeric in µL/min/mg

Requested field: microsomal CLint. Item: CC1(C)C=Cc2c(ccc3c2OC[C@@H](c2ccc(O)cc2O)C3)O1 [GA, glabridin]
4100

* * *

method_description: GA glucuronidation kinetics in human intestinal microsomes
Type: in vitro ADME
assay_conditions: both, human, intestinal microsomes, pH 7.4
quantity: Km at 20 min (µM)
// note: answer is a bare numeric in µM

Requested field: Km at 20 min. Item: CC1(C)C=Cc2c(ccc3c2OC[C@@H](c2ccc(O)cc2O)C3)O1 [GA, glabridin]
8.3

* * *

method_description: GA glucuronidation kinetics in human liver microsomes
Format: in vitro ADME
assay_conditions: both, human, human liver microsomes, pH 7.4, Cltotal, HLM, M1 + M2
quantity: microsomal CLint (µL/min/mg)
// note: answer is a bare numeric in µL/min/mg

Requested field: microsomal CLint. Item: `CC1(C)C=Cc2c(ccc3c2OC[C@@H](c2ccc(O)cc2O)C3)O1`
17
